assay: Dog pharmacokinetic study, single oral HM04 fumarate salt 3, 10, 30 mg/kg (Example 10); assay type: in vivo, male Beagle dogs; details: male, Beagle, plasma, 10 mg/kg oral, n=4
parameter: Cmax (ng/mL)

| molecule | obs.value |
| --- | --- |
| CN1CCC(N(C)C(=O)N[C@H](c2ccc(-c3cnccn3)c(Cl)c2Cl)C(F)(F)F)CC1.O=C(O)/C=C/C(=O)O [HM04 fumarate salt] | 1510 |

---

assay: Dog pharmacokinetic study, single oral HM04 fumarate salt 3, 10, 30 mg/kg (Example 10); type: in vivo, male Beagle dogs; conditions: male, Beagle, plasma, 30 mg/kg oral, 4 hours, n=4

| molecule | concentration at 4 h, ng/mL |
| --- | --- |
| CN1CCC(N(C)C(=O)N[C@H](c2ccc(-c3cnccn3)c(Cl)c2Cl)C(F)(F)F)CC1.O=C(O)/C=C/C(=O)O [HM04 fumarate salt] | 3780 |
